# target.system: full-length beta-catenin (Axin site) (Homo sapiens)
# Construct: 15 nM full-length beta-catenin, 20 nM FITC labeled peptide in buffer
# experiment.summary: Competition fluorescence polarization assay (Axin site probe)
# Type: binding
# condition.info: competition fluorescence polarization, Table 2; read-out: in vitro FP EC50
pEC50: −log10 of the molar value.
observed.property: pEC50

{"compound": "CC[C@H](C)[C@@H]1NC(=O)[C@](C)(NC(=O)[C@H](CCC(N)=O)NC(=O)[C@@H]2CCCN2C(C)=O)CCCC=CCOC(=O)N2CC[C@](C(=O)N[C@@H](Cc3c[nH]cn3)C(=O)N[C@H](C(=O)N[C@@H](CCCNC(=N)N)C(=O)N[C@@H](CCCNC(=N)N)C(=O)N[C@H](C(=O)N[C@@H](Cc3c[nH]c4ccccc34)C(=O)N[C@@H](CCCNC(=N)N)C(N)=O)C(C)C)C(C)C)(C2)NC(=O)[C@H](CC(=O)O)NC(=O)[C@H](CC(C)C)NC1=O (single isomer, unassigned) [FP0766c, Ac-P-Q-R5-I-L-D-MC-H-V-R-R-V-W-R-NH2]", "pEC50": "> 7.00"}
{"compound": "CC[C@H](C)[C@@H]1NC(=O)[C@](C)(NC(=O)[C@H](CCC(N)=O)NC(=O)[C@@H]2CCCN2C(C)=O)CCCCCC=CCOC(=O)N2CC[C@](C(=O)N[C@@H](Cc3c[nH]cn3)C(=O)N[C@H](C(=O)N[C@@H](CCCNC(=N)N)C(=O)N[C@@H](CCCNC(=N)N)C(=O)N[C@H](C(=O)N[C@@H](Cc3c[nH]c4ccccc34)C(=O)N[C@@H](CCCNC(=N)N)C(N)=O)C(C)C)C(C)C)(C2)NC(=O)[C@H](CC(=O)O)NC(=O)[C@H](CC(C)C)NC1=O (single isomer, unassigned) [FP0768c, Ac-P-Q-R7-I-L-D-MC-H-V-R-R-V-W-R-NH2]", "pEC50": "6.30 to 7.00"}
{"compound": "CC[C@H](C)[C@@H]1NC(=O)[C@]2(NC(=O)[C@H](CCC(N)=O)NC(=O)[C@@H]3CCCN3C(C)=O)CCN(C2)C(=O)OCC=CCCC[C@@](C)(C(=O)N[C@@H](Cc2c[nH]cn2)C(=O)N[C@H](C(=O)N[C@@H](CCCNC(=N)N)C(=O)N[C@@H](CCCNC(=N)N)C(=O)N[C@H](C(=O)N[C@@H](Cc2c[nH]c3ccccc23)C(=O)N[C@@H](CCCNC(=N)N)C(N)=O)C(C)C)C(C)C)NC(=O)[C@H](CC(=O)O)NC(=O)[C@H](CC(C)C)NC1=O (single isomer, unassigned) [FP0751c, Ac-P-Q-MB-I-L-D-S5-H-V-R-R-V-W-R-NH2]", "pEC50": "5.30 to 6.30"}

Now for another entry.
Query: Give a short answer stating reported pEC50 for CC[C@H](C)[C@@H]1NC(=O)[C@H](Cc2ccccn2)NC(=O)[C@H](C)NC(=O)[C@H](CC(=O)O)NC(=O)[C@H](CC(C)C)NC(=O)[C@H]([C@@H](C)CC)NC(=O)[C@](C)(NC(=O)[C@H](C)NC(C)=O)CCCCCCC=CCOC(=O)N2CC[C@@](C(=O)N[C@@H](Cc3cccc4ccccc34)C(=O)N[C@H](C(=O)N[C@@H](Cc3c[nH]c4ccccc34)C(N)=O)C(C)C)(C2)NC1=O (single isomer, unassigned) [FP0577c Isomer 1, Ac-A-R8-I-L-D-A-2pyr-I-MB-1NapA-V-W-NH2] .
Reply: < 5.30

----------
# target.system: full-length beta-catenin (Axin site) (Homo sapiens, UniProt P35222)
# Construct: 15 nM full-length beta-catenin, 20 nM FITC labeled peptide in buffer
# Sequence (P35222 whole entry): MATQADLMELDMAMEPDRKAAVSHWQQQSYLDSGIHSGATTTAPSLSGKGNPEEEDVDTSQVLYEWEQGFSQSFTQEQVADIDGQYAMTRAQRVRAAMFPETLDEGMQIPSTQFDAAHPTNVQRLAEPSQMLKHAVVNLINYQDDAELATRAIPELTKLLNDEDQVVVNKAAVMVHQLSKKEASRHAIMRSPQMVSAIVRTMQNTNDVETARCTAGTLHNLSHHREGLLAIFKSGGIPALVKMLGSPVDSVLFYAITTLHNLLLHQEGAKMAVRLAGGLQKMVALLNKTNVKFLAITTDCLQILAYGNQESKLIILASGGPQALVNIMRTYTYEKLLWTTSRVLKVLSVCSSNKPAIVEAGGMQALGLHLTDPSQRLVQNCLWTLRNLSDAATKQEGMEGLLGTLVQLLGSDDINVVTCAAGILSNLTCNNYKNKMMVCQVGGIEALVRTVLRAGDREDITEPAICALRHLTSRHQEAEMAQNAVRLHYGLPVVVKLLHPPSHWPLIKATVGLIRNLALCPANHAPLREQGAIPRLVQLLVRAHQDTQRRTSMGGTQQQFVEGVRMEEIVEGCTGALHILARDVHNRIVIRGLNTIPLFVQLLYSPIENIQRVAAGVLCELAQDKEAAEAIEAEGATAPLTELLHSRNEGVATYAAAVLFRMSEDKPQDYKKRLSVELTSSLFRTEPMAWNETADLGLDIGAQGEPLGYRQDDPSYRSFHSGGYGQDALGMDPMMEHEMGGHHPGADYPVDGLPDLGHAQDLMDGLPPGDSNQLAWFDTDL
# experiment.summary: Competition fluorescence polarization assay (Axin site probe)
# Format: binding
# condition.info: competition fluorescence polarization, Table 2; read-out: in vitro FP EC50
observed.property: EC50

Query: Lab note: record EC50 of CC[C@H](C)[C@@H]1NC(=O)[C@H](Cc2c[nH]cn2)NC(=O)[C@H](C)NC(=O)[C@H](CC(=O)O)NC(=O)[C@H](CC(C)C)NC(=O)[C@H]([C@@H](C)CC)NC(=O)[C@](C)(NC(=O)[C@H](C)NC(C)=O)CCCCC=CCOC(=O)N(C)CCC[C@@](C)(C(=O)N[C@@H](CCCNC(=N)N)C(=O)N[C@H](C(=O)N[C@@H](Cc2c[nH]c3ccccc23)C(N)=O)C(C)C)NC1=O (single isomer, unassigned) [FP0511c Isomer 2, Ac-A-R6-I-L-D-A-H-I-MH-R-V-W-NH2] tested on full-length beta-catenin (Axin site) (Homo sapiens, UniProt P35222).
Reply: < 100 nM
